# Test system: SN12C renal
# METHOD: NCI-60 one-dose screen, 48 h
# MEASUREMENT_SETUP: 10 µM
About 83,000 compounds went through this panel and 20% of them were active in at least one assay; those are over-represented in the sample as a whole. Activity calls are given as the source filed them. Rule for the calls: active = growth percent below 10; inactive = the rest.
Respond only with the outcome that fits, drawn from Yes = active, No = inactive

O=C1Nc2ccccc2C1=NC1CCCCC1 | No
COc1ccc(-c2nn(-c3cccc(NC(=O)Nc4cc(C(F)(F)F)cc(C(F)(F)F)c4)c3)cc2-c2ccncc2)cc1Cl | No
CC/C(C)=C(\C)C(=O)O | No
Cc1cc(N(CCCNc2ccnc3cc(Cl)ccc23)Cc2ccc3c(c2)OCO3)nc(N2CCCCC2)n1 | No
O=S(=O)(NCCNc1nccc(-c2c(-c3ccc(F)cc3)nc3sccn23)n1)c1ccc2ccccc2c1 | No

Request: Which result was noted for this compound in the test: O=C1Nc2ccc(Cl)cc2/C1=C\c1c(-c2ccc(Cl)cc2)nc2sc(C3CC3)nn12
Response: No

Request: What outcome does the record of this test show for Nc1cc2c(cc1Cl)-c1ccc([N+](=O)[O-])cc1/C2=N\O ?
Response: No

Request: Call for entry Cc1ccc(Nc2nnc(-c3cc(-c4ccncc4)n(-c4ccccc4)n3)s2)cc1 :
Response: No

Request: What outcome does the record of this test show for COc1ccc(/C=C2/CN(CCC#N)C/C(=C\c3ccc(OC)cc3)C2=O)cc1 ?
Response: Yes

Request: # fetch the recorded call for CC(C)C[C@H](NC(=O)[C@H](Cc1cccc2ccccc12)NS(=O)(=O)c1cccc2cccnc12)B(O)O here
Response: Yes
